Values were extracted from ChEMBL document CHEMBL4376889.

Test: Ratio of drug concentration in brain to plasma in Sprague-Dawley rat at 3 mg/kg, po incubated for 24 hrs by LC-MS/MS analysis
Format: ADME, organism-based
Details: read-out: BPR
QUANTITY NAME: Kp at 24 h
Just the number, please.

Sample C[C@@H]1COCCN1c1nc(N2CCOC[C@@H]2C)nc2sc(-c3cc[nH]n3)nc12 ; Kp at 24 h observed: 3.1

----------
Target: Serine/threonine-protein kinase mTOR (Rattus norvegicus, UniProt P42346, C1483Y)
Sequence (P42346 whole entry C1483Y, looked up): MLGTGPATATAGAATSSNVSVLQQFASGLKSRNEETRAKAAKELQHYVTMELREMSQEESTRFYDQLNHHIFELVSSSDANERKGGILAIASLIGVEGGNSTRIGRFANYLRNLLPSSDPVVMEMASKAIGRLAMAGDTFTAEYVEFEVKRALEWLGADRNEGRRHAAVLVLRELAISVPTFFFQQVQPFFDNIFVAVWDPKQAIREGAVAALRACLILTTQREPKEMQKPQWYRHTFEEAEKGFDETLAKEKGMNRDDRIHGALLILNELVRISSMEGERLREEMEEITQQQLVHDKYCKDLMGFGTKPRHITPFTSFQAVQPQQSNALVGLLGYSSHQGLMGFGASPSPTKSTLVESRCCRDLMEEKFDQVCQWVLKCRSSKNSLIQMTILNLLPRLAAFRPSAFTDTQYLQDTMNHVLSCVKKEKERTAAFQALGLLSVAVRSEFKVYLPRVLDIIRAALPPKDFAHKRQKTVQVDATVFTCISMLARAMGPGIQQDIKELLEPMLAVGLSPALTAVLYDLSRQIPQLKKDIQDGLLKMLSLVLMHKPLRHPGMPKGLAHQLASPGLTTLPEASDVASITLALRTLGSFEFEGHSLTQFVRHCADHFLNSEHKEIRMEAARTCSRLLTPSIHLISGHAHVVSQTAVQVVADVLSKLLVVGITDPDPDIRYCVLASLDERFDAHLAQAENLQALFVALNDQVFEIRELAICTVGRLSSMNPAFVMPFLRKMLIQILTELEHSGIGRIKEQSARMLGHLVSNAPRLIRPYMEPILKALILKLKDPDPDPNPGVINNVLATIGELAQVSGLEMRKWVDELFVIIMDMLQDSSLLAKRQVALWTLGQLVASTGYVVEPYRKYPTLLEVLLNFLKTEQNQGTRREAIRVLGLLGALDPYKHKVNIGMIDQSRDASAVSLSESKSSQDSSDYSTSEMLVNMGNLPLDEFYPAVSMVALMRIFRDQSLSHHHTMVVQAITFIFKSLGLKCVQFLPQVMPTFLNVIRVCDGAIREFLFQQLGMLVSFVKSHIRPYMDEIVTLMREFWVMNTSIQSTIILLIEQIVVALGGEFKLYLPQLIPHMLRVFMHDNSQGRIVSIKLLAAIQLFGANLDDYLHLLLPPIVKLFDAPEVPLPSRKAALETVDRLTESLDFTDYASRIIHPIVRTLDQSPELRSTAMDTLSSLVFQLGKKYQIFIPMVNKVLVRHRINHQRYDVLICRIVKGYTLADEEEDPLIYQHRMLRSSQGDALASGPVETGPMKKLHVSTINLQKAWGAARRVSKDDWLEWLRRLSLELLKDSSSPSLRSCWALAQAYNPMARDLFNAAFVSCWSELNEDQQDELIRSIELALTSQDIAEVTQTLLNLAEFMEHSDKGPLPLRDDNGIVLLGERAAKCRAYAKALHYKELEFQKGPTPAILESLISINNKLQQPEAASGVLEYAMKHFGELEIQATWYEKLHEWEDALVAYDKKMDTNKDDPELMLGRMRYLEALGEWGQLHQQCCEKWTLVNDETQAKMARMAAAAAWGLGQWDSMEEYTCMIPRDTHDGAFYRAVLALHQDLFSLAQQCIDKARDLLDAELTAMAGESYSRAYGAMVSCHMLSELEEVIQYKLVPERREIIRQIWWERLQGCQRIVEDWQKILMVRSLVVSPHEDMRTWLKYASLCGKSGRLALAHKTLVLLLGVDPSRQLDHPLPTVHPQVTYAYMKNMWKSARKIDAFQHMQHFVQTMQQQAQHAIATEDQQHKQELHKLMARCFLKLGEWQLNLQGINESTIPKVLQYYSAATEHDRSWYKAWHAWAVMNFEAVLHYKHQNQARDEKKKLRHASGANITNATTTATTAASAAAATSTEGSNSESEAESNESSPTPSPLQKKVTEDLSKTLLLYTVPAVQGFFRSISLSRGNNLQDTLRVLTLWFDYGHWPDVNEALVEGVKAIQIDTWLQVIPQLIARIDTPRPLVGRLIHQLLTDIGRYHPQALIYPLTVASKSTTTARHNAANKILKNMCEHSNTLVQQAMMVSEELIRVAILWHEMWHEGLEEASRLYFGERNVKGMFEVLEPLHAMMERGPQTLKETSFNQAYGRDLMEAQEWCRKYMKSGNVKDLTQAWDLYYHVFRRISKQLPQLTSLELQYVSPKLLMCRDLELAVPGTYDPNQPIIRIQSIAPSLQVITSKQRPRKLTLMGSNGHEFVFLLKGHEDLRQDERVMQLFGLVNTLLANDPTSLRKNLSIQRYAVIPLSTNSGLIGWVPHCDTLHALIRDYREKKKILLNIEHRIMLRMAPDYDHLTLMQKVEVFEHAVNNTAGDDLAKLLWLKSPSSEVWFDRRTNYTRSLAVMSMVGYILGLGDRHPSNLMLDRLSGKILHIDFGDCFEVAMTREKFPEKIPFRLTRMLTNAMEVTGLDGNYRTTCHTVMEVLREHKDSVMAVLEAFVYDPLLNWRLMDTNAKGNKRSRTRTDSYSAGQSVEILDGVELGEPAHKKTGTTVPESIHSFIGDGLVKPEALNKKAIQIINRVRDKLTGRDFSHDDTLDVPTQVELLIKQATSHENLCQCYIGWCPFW
Test: Inhibition of mTOR C1483Y mutant in rat primary cortical neuron assessed as reduction in PS6 phosphorylation incubated for 4 hrs by Western blot analysis (reference value: 19 nM)
QUANTITY NAME: IC50 (nM)
Your answer is read as nM, so omit the unit and give the number.

IC50 reported for this compound C[C@@H]1COCCN1c1nc(N2CCOC[C@@H]2C)nc2sc(-c3cc[nH]n3)nc12 : 37
